- Tested target: human kynurenine-3-monooxygenase (hKMO) (Homo sapiens)
- Construct: gene KMO; purified KMO protein with C-terminal His-FLAG-tag
- Sequence (O15229 whole entry): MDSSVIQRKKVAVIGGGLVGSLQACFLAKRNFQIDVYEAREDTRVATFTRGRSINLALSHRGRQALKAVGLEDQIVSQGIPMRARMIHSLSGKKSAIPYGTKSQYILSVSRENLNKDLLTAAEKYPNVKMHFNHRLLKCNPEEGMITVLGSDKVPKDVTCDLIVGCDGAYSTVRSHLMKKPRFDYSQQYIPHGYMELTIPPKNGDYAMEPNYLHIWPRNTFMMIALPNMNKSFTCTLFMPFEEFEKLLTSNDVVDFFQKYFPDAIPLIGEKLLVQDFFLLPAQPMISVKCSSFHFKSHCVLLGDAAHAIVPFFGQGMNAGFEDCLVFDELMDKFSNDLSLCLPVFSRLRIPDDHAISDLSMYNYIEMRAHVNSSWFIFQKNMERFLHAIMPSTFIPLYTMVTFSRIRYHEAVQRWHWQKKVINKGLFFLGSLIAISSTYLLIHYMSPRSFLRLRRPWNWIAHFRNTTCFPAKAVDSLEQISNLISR
- Assay overview: KMO NADPH-consumption assay (BPS Bioscience KMO Screening Kit), dose-response; positive control
- Type: biochemical
Property label: pIC50
Schema: pIC50 number; meaning minus log10 of the concentration expressed in molar units.

Input line: Suppose we examine the molecule COc1ccc(S(=O)(=O)Nc2nc(-c3cccc([N+](=O)[O-])c3)cs2)cc1OC ; what pIC50 value has been reported?
Output line: 6.14
